- systemUnderTest: T1, human CD22 (d1 to d7 domain according to NP_001762.2) (human, UniProt P20273 20-687)
- T1 construct: domain: d1 to d7 domain; also called human CD22-gly; Siglec-2
- protocolText: SPR; mAb supernatant captured on protein A chip, human CD22 injected
endpointName: Kd (pM)
API: value field is a number in pM; no unit string.

Kd reported for this binder TNT69 (antibody, human IgG1, kappa, V domains shown) VH: EVQLVESGGGLVQPGGSLRLSCAASGFAFSIYDMSWVRQAPGKGLEWVAYISSGGGTTYYPDTVKGRFTISRDNSKNTLYLQMNSLRAEDTAVYYCARHSGYGTHWGVLFAYWGRGTLVTVSS VL: DIQMTQSPSSLSASVGDRVTITCRASQDIHGYLNWYQQKPGKAPKLLIYYTSILHSGVPSRFSGSGSGTDFTLTISSLQPEDFATYFCQQGNTLPWTFGQGTKLEIKR : 624

Data provenance: patent US20220380768A1
